- target system: human TLR8 (Homo sapiens (Human))
- run description: TLR8 inhibition reporter assay (HEK-Blue SEAP)
- test settings: read-out: TLR8 IC50; HEK-Blue cells overexpressing human TLR8; R848 15.9 μM stimulation; SEAP reporter
endpoint: IC50 (nM)

[P] Cc1c(-c2[nH]c3cnc(N4CCN(CCS(C)(=O)=O)C[C@H]4C)c(F)c3c2C(C)C)cn2ncnc2c1C
[Q] COc1cc(-c2[nH]c3cnc(N4CCN(C5CCOCC5)C[C@H]4C)c(F)c3c2C(C)C)cn2ncnc12
[R] Cc1c(-c2[nH]c3cnc(N4CCN(C5CCN(C(C)C)CC5)C[C@H]4C)c(F)c3c2C(C)C)cn2ncnc2c1C
[S] Cc1cc(-c2[nH]c3cnc(N4CCC(NC(C)C)CC4)c(F)c3c2C(C)C)cn2ncnc12
Arrange the 4 molecules from largest to smallest IC50. Returns: the labels listed in the requested order. Q, P, R, S

---

- target system: human TLR9 (Homo sapiens (Human))
- run description: TLR9 inhibition reporter assay (HEK-Blue SEAP)
- test settings: read-out: TLR9 IC50; HEK-Blue cells overexpressing human TLR9, ODN2006 5 nM stimulation, SEAP reporter
endpoint: IC50 (nM)

Consider the reported IC50 for these compounds:
>>> df
                                   compound  observed_result
0  Cc1c(-c2[nH]c3cnc(C4CCN(C(C)C)CC4)cc3c2C(C)C)cn2ncnc2c1C [Example 35]              154
1  Cc1c(-c2[nH]c3cnc(N4CCC(NC5COC5)CC4)c(F)c3c2C(C)C)cn2ncnc2c1C [Example 146]             6660
2  Cc1c(-c2[nH]c3cnc(C4CCN(CC(N)=O)CC4)cc3c2C(C)C)cn2ncnc2c1C [Example 23]              147

[1] Cc1cc(-c2[nH]c3cnc(C4CCN(CC5(C)COC5)CC4)c(F)c3c2C(C)C)cn2ncnc12 [Example 250]
[2] Cc1c(-c2[nH]c3cnc(N4CCN(C(=O)CN(C)C)CC4)c(C)c3c2C(C)C)cn2ncnc2c1C [Example 416]
[3] Cc1c(-c2[nH]c3cnc(C4CCC(NCC5(C)COC5)CC4)c(F)c3c2C(C)C)cn2ncnc2c1C (stereo not shown) [Example 172]
Order the items by recorded IC50; the first position goes to the largest value. Returns: the labels listed in the requested order. 1, 3, 2

---

- target system: human TLR9 (Homo sapiens (Human), UniProt Q9NR96)
- Sequence (Q9NR96 26-1032): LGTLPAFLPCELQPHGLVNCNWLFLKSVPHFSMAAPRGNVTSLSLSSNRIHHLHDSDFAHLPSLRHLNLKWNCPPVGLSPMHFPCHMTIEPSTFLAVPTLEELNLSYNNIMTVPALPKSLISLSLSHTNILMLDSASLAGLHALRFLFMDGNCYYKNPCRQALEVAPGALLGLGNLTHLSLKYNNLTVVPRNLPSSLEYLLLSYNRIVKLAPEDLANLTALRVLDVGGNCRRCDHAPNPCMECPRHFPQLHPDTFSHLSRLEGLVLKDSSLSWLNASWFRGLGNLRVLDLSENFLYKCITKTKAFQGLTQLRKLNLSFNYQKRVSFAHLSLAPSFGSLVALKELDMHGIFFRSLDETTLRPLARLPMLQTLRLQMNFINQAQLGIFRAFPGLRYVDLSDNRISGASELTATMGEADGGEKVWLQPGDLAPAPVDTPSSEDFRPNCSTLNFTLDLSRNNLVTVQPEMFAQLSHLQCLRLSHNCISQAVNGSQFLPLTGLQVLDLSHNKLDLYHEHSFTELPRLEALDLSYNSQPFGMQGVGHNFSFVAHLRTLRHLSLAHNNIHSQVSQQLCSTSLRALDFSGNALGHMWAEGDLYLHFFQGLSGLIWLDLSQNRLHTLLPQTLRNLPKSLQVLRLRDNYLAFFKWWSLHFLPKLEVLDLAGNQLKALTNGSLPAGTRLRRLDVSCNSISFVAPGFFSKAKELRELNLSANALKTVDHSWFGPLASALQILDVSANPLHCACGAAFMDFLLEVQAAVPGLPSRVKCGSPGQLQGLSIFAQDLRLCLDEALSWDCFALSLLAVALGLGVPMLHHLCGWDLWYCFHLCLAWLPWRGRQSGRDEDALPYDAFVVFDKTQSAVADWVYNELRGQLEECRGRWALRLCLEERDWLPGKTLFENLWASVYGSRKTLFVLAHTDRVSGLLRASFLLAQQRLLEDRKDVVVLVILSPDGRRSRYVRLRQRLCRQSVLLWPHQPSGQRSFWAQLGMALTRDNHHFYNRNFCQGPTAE
- run description: TLR9 inhibition reporter assay (HEK-Blue SEAP);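 note: SEAP driven by IFN-β minimal promoter carrying five NF-κB and AP-1 sites, 22 h at 37 °C, compounds 0.05 nM–50 µM, inhibition scaled between agonist-plus-DMSO and reference-inhibitor wells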
- test settings: read-out: TLR9 IC50; HEK-Blue cells overexpressing human TLR9, ODN2006 5 nM stimulation, SEAP reporter
endpoint: IC50 (µM)

>>> df
                                   compound  endpoint  observed_result
0  CCN(C)C1CCC(c2ncc3[nH]c(-c4cn5ncnc5c(C)c4C)c(C(C)C)c3c2F)CC1 (stereo not shown) [Example 263]      IC50             5.65

[P] COc1cc(-c2[nH]c3cnc(N4CCC(NC(C)C)CC4)c(F)c3c2C(C)C)cn2ncnc12
[Q] Cc1c(-c2[nH]c3cnc(N4CC5(C4)CN(C(C)C)C5)c(F)c3c2C(C)C)cn2ncnc2c1C
[R] Cc1c(-c2[nH]c3cnc(C4CCC(NC5COC5)CC4)c(C)c3c2C(C)C)cn2ncnc2c1C (stereo not shown) [Example 91]
Order the items by recorded IC50; the first position goes to the largest value. Returns: the labels listed in the requested order. Q, P, R
(Q: 9.27 µM, P: 4.18 µM, R: 0.676 µM)

---

- target system: human TLR8 (Homo sapiens (Human))
- run description: TLR8 inhibition reporter assay (HEK-Blue SEAP)
- test settings: read-out: TLR8 IC50; HEK-Blue cells overexpressing human TLR8, R848 15.9 μM stimulation, SEAP reporter
pIC50: −log10 of the molar value.
endpoint: pIC50

Consider the reported pIC50 for these molecules:
>>> print(df.to_string())
                                   molecule  observed_result
0  Cc1cc(-c2[nH]c3cnc(N4CCC(N(C)CC(F)F)CC4)c(F)c3c2C(C)C)cn2ncnc12 [Example 257]             8.19
1  COc1cc(-c2[nH]c3cnc(C4CCC(N5CC(OC)C5)CC4)c(C)c3c2C(C)C)cn2ncnc12 (stereo not drawn) [Example 180]             8.02
2  CNC(=O)CN1CC2(C1)CN(c1ncc3[nH]c(-c4cc(OC)c5ncnn5c4)c(C(C)C)c3c1F)C2 [Example 356]             8.21

[a] COc1cc(-c2[nH]c3cnc(C4CCC(N(C)C5COC5)CC4)c(F)c3c2C(C)C)cn2ncnc12 (stereo not drawn) [Example 197]
[b] CNC(=O)CN1CCN(c2ncc3[nH]c(-c4cc(OC)c5ncnn5c4)c(C(C)C)c3c2C)CC1 [Example 40]
Select one. Lower pIC50: a or b Write down the label attached to your selection. b

---

- target system: human TLR9 (Homo sapiens (Human))
- run description: TLR9 inhibition reporter assay (HEK-Blue SEAP)
- test settings: read-out: TLR9 IC50; HEK-Blue cells overexpressing human TLR9, ODN2006 5 nM stimulation, SEAP reporter
endpoint: IC50 (nM)

Consider the reported IC50 for these compounds:
In [3]: df
Out[3]:
                                   compound  unit_label  observed_result
0  Cc1cc(-c2[nH]c3cnc(C4CCN(CC(C)(C)O)CC4)c(F)c3c2C(C)C)cn2ncnc12          nM             2480
1  Cc1c(-c2[nH]c3cnc(C4CCC(NC5CCOCC5)CC4)c(F)c3c2C(C)C)cn2ncnc2c1C (stereo not drawn)          nM             1020
2  COc1cc(-c2[nH]c3cnc(N4CCN(CC(N)=O)CC4)c(C)c3c2C(C)C)cn2ncnc12          nM             6310

[I] Cc1cc(-c2[nH]c3cnc(C4CCC(NC5CCOCC5)CC4)c(F)c3c2C(C)C)cn2ncnc12 (stereo not drawn) [Example 82]
[II] COc1cc(-c2[nH]c3cnc(N4CCN(CC(=O)N(C)C)CC4)cc3c2C(C)C)cn2ncnc12
Select one. Lower IC50: I or II Write down the label attached to your selection. I

[1] Cc1cc(-c2[nH]c3cnc(C4CCN(CC(N)=O)CC4)c(F)c3c2C(C)C)cc(C)n1
[2] Cc1cc(-c2[nH]c3cnc(N4CCC(N(C)CC(=O)N(C)C)CC4)c(F)c3c2C(C)C)cn2ncnc12
[3] Cc1cc(-c2[nH]c3cnc(C4CCC(N(C)C(C)C)CC4)c(F)c3c2C(C)C)cn2ncnc12 (stereo not drawn) [Example 261]
Would you mind ranking these compounds by ascending IC50? Returns: the labels listed in the requested order. 3, 2, 1

---

- target system: human TLR8 (Homo sapiens (Human), UniProt Q9NR97)
- Sequence (Q9NR97 27-1041): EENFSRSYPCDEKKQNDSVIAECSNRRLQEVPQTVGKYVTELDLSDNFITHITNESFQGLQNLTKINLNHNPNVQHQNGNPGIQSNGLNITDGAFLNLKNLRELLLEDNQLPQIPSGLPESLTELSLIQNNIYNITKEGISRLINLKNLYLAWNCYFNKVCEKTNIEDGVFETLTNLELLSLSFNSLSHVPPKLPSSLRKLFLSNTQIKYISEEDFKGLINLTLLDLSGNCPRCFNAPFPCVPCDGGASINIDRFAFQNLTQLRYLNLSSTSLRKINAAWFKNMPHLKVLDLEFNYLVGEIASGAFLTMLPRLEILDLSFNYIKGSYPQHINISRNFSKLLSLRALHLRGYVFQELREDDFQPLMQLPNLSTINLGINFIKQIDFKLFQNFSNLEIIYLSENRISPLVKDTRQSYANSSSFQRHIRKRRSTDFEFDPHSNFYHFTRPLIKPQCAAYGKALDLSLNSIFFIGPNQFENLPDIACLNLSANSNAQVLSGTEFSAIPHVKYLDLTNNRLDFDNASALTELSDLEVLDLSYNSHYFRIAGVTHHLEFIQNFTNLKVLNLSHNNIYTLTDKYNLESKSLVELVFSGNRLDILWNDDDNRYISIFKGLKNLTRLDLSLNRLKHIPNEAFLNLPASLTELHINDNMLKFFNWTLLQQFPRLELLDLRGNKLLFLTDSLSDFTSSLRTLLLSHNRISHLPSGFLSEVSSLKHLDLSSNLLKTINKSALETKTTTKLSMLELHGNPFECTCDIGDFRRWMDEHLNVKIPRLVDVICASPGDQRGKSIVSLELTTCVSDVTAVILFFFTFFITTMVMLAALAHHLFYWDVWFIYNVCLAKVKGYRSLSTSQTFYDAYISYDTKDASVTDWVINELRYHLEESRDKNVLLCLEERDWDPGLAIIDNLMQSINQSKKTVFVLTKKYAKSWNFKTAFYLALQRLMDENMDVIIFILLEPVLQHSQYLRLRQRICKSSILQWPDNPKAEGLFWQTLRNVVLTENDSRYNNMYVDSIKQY
- run description: TLR8 inhibition reporter assay (HEK-Blue SEAP);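 note: SEAP driven by IFN-β minimal promoter with five NF-κB and AP-1 sites, compounds tested 0.05 nM to 50 µM, 22 h incubation, inhibition relative to agonist plus DMSO wells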
- test settings: read-out: TLR8 IC50; HEK-Blue cells overexpressing human TLR8, R848 15.9 μM stimulation, SEAP reporter
endpoint: IC50 (nM)

Consider the reported IC50 for these compounds:
In [3]: df
Out[3]:
                                   compound  unit_label  observed_result
0  COc1cc(-c2[nH]c3cnc(C4CCC(NCC(C)(C)C)C4)cc3c2C(C)C)cn2ncnc12 (stereo not drawn) [Example 144]          nM               14
1  COc1cc(-c2[nH]c3cnc(C4CCC(N(C)C(C)C)CC4)c(F)c3c2C(C)C)cn2ncnc12 (stereo not drawn) [Example 76]          nM              3.8
2  Cc1c(-c2[nH]c3cnc(N4CCC(NCC(C)(C)O)CC4)c(C)c3c2C(C)C)cn2ncnc2c1C [Example 88]          nM             0.28
3  Cc1c(-c2[nH]c3cnc(C4CCC(N5CCC5)CC4)cc3c2C(C)C)cn2ncnc2c1C (stereo not drawn) [Example 335]          nM               42
4  CNC(=O)CN1CCN(c2ncc3[nH]c(-c4cn5ncnc5c(C)c4C)c(C(C)C)c3c2C)CC1 [Example 413]          nM              6.1

[A] COc1cc(-c2[nH]c3cnc(C4CCC(NC5CCOCC5)CC4)c(C)c3c2C(C)C)cn2ncnc12 (stereo not drawn) [Example 241]
[B] Cc1c(-c2[nH]c3cnc(N4CCC(NCC5(C)COC5)CC4)c(C)c3c2C(C)C)cn2ncnc2c1C [Example 54]
Select one. Lower IC50: A or B Write down the label attached to your selection. B
(B: 0.3 nM, A: 11 nM)
